M2-type muscarinic cholinergic receptor (Cavia porcellus, UniProt H0VRN8) IC50, compiled from various sources.
assay-endpoint: IC50

compound=CCN(CC)Cc1cn2nc(-c3ccccc3)ccc2n1 assay_endpoint=IC50 reported_measurement="100 µM"
compound=Clc1ccc(-c2nnc(NCCCN3CCOCC3)s2)cc1 assay_endpoint=IC50 reported_measurement="80 µM"
compound=CN(C)CCNc1cc2c(nn1)-c1ccccc1CCC2 assay_endpoint=IC50 reported_measurement="25 µM"
compound=c1ccc2c(c1)CCCc1cc(NCCN3CCCCC3)nnc1-2 assay_endpoint=IC50 reported_measurement="3.6 µM"
compound=Clc1ccc(-c2nnc(NCCCN3CCCC3)s2)c(Cl)c1 assay_endpoint=IC50 reported_measurement="12 µM"
compound=CNCCCNc1nnc(-c2ccc(Cl)cc2Cl)s1 assay_endpoint=IC50 reported_measurement="70 µM"
compound=CN(C)CCCNc1nnc(-c2ccccc2)s1 assay_endpoint=IC50 reported_measurement="> 100 µM"
compound=Clc1ccc(-c2ccc3nc(CN4CCOCC4)cn3n2)cc1 assay_endpoint=IC50 reported_measurement="> 100 µM"
compound="CCN1CCCC1CNc1cc2oc3ccccc3c2nn1 (centres unmarked)" assay_endpoint=IC50 reported_measurement="50 µM"
compound=CCN(CC)CCNc1cc(C)c(-c2ccccc2)nn1 assay_endpoint=IC50 reported_measurement="2.8 µM"
compound=CCc1cc(NCCN(CC)CC)nnc1-c1ccccc1 assay_endpoint=IC50 reported_measurement="1 µM"
compound=CCN(CCCN(C)C)c1nnc(-c2ccc(F)cc2)s1 assay_endpoint=IC50 reported_measurement="20 µM"
compound=CCN(CC)CCCNc1cc2oc3ccccc3c2nn1 assay_endpoint=IC50 reported_measurement="10 µM"
compound=CN(C)CCNc1cc2c(nn1)-c1cc(Cl)c(Cl)cc1CCC2 assay_endpoint=IC50 reported_measurement="6.5 µM"
compound=CN(C)CCNc1cc2c(nn1)-c1cc([N+](=O)[O-])ccc1CCC2 assay_endpoint=IC50 reported_measurement="9 µM"
compound=c1ccc2c(c1)CCCc1cc(NCCN3CCCC3)nnc1-2 assay_endpoint=IC50 reported_measurement="4.5 µM"
compound=Cc1cc(C)c(-c2nnc(NCCCN(C)C)s2)c(C)c1Br assay_endpoint=IC50 reported_measurement="27 µM"
compound=CCN(CC)CCNc1cc2oc3ccccc3c2nn1 assay_endpoint=IC50 reported_measurement="45 µM"
compound=CCCc1cc(NCCN(CC)CC)nnc1-c1ccccc1 assay_endpoint=IC50 reported_measurement="3.5 µM"
compound=CCN(CC)CCNc1cc2c(nn1)-c1ccccc1CCC2 assay_endpoint=IC50 reported_measurement="2 µM"
